- system-tested: Luciferin 4-monooxygenase (Photinus pyralis)
- protocol-text: qHTS profiling assay for firefly luciferase inhibitor/activator using purifed enzyme and Km concentrations of substrates (counterscreen for miR-21 project); further: nearly all actives have a fitted effect of over 55% in size; further: potency means the concentration at half of the fitted maximal effect
- experimental-parameters: purified FLuc, luminescence inhibition; series mostly up to 57.5 µM
Hit rate of the full screen: of about 360,000 compounds, about 25,000 (6.9%) were called active. Not shown: some 9% with an inconclusive outcome. Only a selection was taken, and actives are over-represented in it overall.
readout-type: Potency

Past entries and their recorded results:
CC(C)c1csc(CN2CCC(CO)(Cc3ccccc3)CC2)n1 :: 6.75 µM (active)
CC(=O)c1cc(-c2ccccc2)n(CC(=O)NC2CCCCC2)c1C :: inactive
COc1ccc(Cl)cc1NC(=O)CSc1nc2ccccc2c2nc(-c3ccccc3)nn12 :: inactive
O=C(CCc1nc(-c2ccccc2)no1)Nc1cccc(C(=O)NC2CC2)c1 :: inactive
Cc1cc(NC(=O)C2CCC(CNS(=O)(=O)c3ccc(Br)s3)CC2)ccc1Br (stereo not drawn) :: inactive

Prompt: Answer with the recorded Potency for the compound listed here: O=C(NCC1CCCO1)c1cc2c([nH]c3ccccc32)c(-c2ccc(F)cc2)n1 (stereo not drawn)
Response: inactive

Prompt: Answer with the recorded Potency for the compound listed here: `COCCNC(=O)c1ccccc1-c1nc(-c2ccccc2Cl)no1`
Response: 12 µM (active)

Prompt: Answer with the recorded Potency for the compound listed here: `COc1ccc(NC(=O)c2ccc3nc(CCc4ccccc4)oc3c2)c(OC)c1`
Response: inactive

Prompt: Answer with the recorded Potency for the compound listed here: `COc1ccccc1C(=O)NCCC(=O)N(C)Cc1cccnc1`
Response: inactive
